tgt: FLT3(K663Q) (Homo sapiens, UniProt P36888, K663Q)
Construct: purchased Eurofins DiscoverX KINOMEscan (scanTK)
assay-info: KINOMEscan ScanTK
Format: binding
run-conditions: @1000nM, read-out: %Control
Answer each item with its documented remaining binding at 1 µM.
Please reply with the bare figure in % and do not write the unit itself.

Query: Form field: reported remaining binding at 1 µM of Cc1cnc(S(C)(=O)=O)nc1N1CCCC(n2nc(-c3ccc(Oc4ccccc4)cc3)c3c(N)ncnc32)C1 (centres unmarked)
Result: 58

Query: Follow-up item: C=CC(=O)N1CCC[C@@H](n2nc(-c3ccc(Oc4ccccc4)cc3)c3c(N)ncnc32)C1 [Compound 1g, Ibrutinib, reference compound]
Result: 44

Query: Follow-up item: COC(=O)c1cnc(S(C)(=O)=O)nc1N1CCCC(n2nc(-c3ccc(Oc4ccccc4)cc3)c3c(N)ncnc32)C1 (centres unmarked)
Result: 73

Query: Follow-up item: CNC(=O)c1cnc(S(C)(=O)=O)nc1N1CCCC(n2nc(-c3ccc(Oc4ccccc4)cc3)c3c(N)ncnc32)C1 (centres unmarked)
Result: 80

Query: Follow-up item: `CCOC(=O)c1cnc(S(C)(=O)=O)nc1N1CCC[C@@H](n2nc(-c3ccc(Oc4ccccc4)cc3)c3c(N)ncnc32)C1`
Result: 100

====

tgt: KIT (Homo sapiens)
Construct: purchased Eurofins DiscoverX KINOMEscan (scanTK)
assay-info: KINOMEscan ScanTK
Assay type: binding
run-conditions: read-out: %Control @1000nM
Answer each item with its documented remaining binding at 1 µM.
Please reply with the bare figure in % and do not write the unit itself.

Query: So what remaining binding at 1 µM did COC(=O)c1cnc(S(C)(=O)=O)nc1N1CCCC(n2nc(-c3ccc(Oc4ccccc4)cc3)c3c(N)ncnc32)C1 (centres unmarked) get with KIT (Homo sapiens)?
Result: 71

Query: Follow-up item: Cc1cnc(S(C)(=O)=O)nc1N1CCCC(n2nc(-c3ccc(Oc4ccccc4)cc3)c3c(N)ncnc32)C1 (centres unmarked)
Result: 61

Query: Follow-up item: C=CC(=O)N1CCC[C@@H](n2nc(-c3ccc(Oc4ccccc4)cc3)c3c(N)ncnc32)C1 [Compound 1g, Ibrutinib, reference compound]
Result: 41

Query: Follow-up item: `CCOC(=O)c1cnc(S(C)(=O)=O)nc1N1CCC[C@@H](n2nc(-c3ccc(Oc4ccccc4)cc3)c3c(N)ncnc32)C1`
Result: 93

Query: Follow-up item: CNC(=O)c1cnc(S(C)(=O)=O)nc1N1CCCC(n2nc(-c3ccc(Oc4ccccc4)cc3)c3c(N)ncnc32)C1 (centres unmarked)
Result: 99

====

tgt: FGFR3(G697C) (Homo sapiens, UniProt P22607, G697C)
Construct: purchased Eurofins DiscoverX KINOMEscan (scanTK)
Sequence (P22607 23-806 G697C): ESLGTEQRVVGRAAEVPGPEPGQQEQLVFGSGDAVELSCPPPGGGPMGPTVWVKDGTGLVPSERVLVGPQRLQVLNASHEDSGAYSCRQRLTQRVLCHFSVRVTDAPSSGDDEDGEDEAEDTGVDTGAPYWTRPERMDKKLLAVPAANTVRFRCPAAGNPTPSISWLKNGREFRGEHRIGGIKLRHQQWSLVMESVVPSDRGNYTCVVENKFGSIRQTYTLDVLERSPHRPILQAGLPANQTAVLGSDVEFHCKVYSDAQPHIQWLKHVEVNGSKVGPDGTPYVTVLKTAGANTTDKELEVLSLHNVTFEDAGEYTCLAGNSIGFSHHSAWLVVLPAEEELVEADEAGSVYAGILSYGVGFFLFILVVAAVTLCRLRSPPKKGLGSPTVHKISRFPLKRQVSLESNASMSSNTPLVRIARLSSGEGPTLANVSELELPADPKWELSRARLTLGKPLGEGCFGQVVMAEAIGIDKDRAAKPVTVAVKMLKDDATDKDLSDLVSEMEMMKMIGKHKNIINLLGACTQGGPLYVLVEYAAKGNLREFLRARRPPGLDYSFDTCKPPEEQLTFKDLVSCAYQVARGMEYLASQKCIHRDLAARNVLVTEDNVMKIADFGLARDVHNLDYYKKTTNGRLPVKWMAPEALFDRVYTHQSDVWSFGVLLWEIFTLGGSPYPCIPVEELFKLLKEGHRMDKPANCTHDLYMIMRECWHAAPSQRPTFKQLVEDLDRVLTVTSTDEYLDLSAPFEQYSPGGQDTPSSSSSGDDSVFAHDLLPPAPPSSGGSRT
assay-info: KINOMEscan ScanTK
Assay type: binding
run-conditions: @1000nM
endpoint-name: difference in %Control versus compound Ib at 1 µM (%)
Please reply with the bare figure in % and do not write the unit itself.

Query: Form field: reported difference in %Control versus compound Ib at 1 µM of CNC(=O)c1cnc(S(C)(=O)=O)nc1N1CCCC(n2nc(-c3ccc(Oc4ccccc4)cc3)c3c(N)ncnc32)C1 (stereo not shown)
Result: 47

Query: Follow-up item: Cc1cnc(S(C)(=O)=O)nc1N1CCCC(n2nc(-c3ccc(Oc4ccccc4)cc3)c3c(N)ncnc32)C1 (stereo not shown)
Result: 57

Query: Follow-up item: `CCOC(=O)c1cnc(S(C)(=O)=O)nc1N1CCC[C@@H](n2nc(-c3ccc(Oc4ccccc4)cc3)c3c(N)ncnc32)C1`
Result: 50

Query: Follow-up item: COC(=O)c1cnc(S(C)(=O)=O)nc1N1CCCC(n2nc(-c3ccc(Oc4ccccc4)cc3)c3c(N)ncnc32)C1 (stereo not shown)
Result: 44

====

Answer each item with its documented remaining binding at 1 µM.
tgt: BTK (Homo sapiens)
Construct: purchased Eurofins DiscoverX KINOMEscan (scanTK)
Sequence (Q06187 whole entry): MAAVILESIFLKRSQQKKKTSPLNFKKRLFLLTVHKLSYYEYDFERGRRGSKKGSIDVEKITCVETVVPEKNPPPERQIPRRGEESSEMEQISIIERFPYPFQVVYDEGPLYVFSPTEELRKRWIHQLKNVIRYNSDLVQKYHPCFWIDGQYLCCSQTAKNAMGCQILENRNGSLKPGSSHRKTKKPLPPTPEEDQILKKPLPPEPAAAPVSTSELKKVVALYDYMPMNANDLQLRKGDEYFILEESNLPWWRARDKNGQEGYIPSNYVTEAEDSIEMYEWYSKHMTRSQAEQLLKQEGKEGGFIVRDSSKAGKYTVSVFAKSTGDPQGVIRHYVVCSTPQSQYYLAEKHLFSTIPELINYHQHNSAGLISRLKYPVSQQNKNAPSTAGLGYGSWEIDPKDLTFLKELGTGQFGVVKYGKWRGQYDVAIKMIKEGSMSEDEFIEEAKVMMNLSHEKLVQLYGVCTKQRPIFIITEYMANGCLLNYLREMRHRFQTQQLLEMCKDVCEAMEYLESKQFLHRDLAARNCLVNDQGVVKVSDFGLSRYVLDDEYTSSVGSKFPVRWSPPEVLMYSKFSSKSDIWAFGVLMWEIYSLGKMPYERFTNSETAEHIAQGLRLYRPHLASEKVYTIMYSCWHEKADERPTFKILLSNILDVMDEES
assay-info: KINOMEscan ScanTK
Format: binding
run-conditions: @1000nM; BTK; read-out: % difference (compound - Ib %Control)
Answer as a quantity: numeral, then unit.

Query: Form field: reported remaining binding at 1 µM of CCOC(=O)c1cnc(S(C)(=O)=O)nc1N1CCC[C@@H](n2nc(-c3ccc(Oc4ccccc4)cc3)c3c(N)ncnc32)C1 [Compound 8c]
Result: 18%

Query: Follow-up item: COC(=O)c1cnc(S(C)(=O)=O)nc1N1CCCC(n2nc(-c3ccc(Oc4ccccc4)cc3)c3c(N)ncnc32)C1 (stereo not shown) [Compound 8b]
Result: 0.75%

Query: Follow-up item: Cc1cnc(S(C)(=O)=O)nc1N1CCCC(n2nc(-c3ccc(Oc4ccccc4)cc3)c3c(N)ncnc32)C1 (stereo not shown) [Compound 8a]
Result: 0.1%

Query: Follow-up item: CNC(=O)c1cnc(S(C)(=O)=O)nc1N1CCCC(n2nc(-c3ccc(Oc4ccccc4)cc3)c3c(N)ncnc32)C1 (stereo not shown) [Compound 8d]
Result: 0%

====

Answer each item with its documented remaining binding at 1 µM.
tgt: DDR2 (Homo sapiens)
Construct: purchased Eurofins DiscoverX KINOMEscan (scanTK)
Sequence (Q16832 22-855): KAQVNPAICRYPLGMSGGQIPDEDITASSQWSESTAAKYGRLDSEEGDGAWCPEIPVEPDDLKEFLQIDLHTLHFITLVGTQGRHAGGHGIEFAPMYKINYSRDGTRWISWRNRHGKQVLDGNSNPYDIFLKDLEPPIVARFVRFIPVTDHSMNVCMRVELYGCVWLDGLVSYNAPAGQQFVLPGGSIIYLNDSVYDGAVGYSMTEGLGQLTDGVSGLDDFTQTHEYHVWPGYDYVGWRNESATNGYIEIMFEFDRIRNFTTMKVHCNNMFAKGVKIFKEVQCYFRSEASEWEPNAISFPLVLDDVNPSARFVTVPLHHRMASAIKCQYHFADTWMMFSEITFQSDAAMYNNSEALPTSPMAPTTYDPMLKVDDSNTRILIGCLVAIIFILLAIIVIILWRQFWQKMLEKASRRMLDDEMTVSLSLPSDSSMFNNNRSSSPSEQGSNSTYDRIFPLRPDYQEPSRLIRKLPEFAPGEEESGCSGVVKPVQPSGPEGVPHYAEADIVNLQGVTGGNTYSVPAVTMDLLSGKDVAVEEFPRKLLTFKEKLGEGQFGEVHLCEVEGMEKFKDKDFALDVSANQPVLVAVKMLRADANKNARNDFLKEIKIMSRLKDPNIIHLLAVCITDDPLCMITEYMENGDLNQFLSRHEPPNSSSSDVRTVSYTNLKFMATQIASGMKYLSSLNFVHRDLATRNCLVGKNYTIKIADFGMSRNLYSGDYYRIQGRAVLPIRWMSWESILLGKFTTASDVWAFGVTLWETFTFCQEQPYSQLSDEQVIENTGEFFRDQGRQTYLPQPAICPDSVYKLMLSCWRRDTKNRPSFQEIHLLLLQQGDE
assay-info: KINOMEscan ScanTK
Assay type: binding
run-conditions: DDR2; read-out: %Control @1000nM
Please reply with the bare figure in % and do not write the unit itself.

Query: Form field: reported remaining binding at 1 µM of COC(=O)c1cnc(S(C)(=O)=O)nc1N1CCCC(n2nc(-c3ccc(Oc4ccccc4)cc3)c3c(N)ncnc32)C1 (stereo not shown)
Result: 91

Query: Follow-up item: `CCOC(=O)c1cnc(S(C)(=O)=O)nc1N1CCC[C@@H](n2nc(-c3ccc(Oc4ccccc4)cc3)c3c(N)ncnc32)C1`
Result: 75

Query: Follow-up item: CNC(=O)c1cnc(S(C)(=O)=O)nc1N1CCCC(n2nc(-c3ccc(Oc4ccccc4)cc3)c3c(N)ncnc32)C1 (stereo not shown)
Result: 82

Query: Follow-up item: Cc1cnc(S(C)(=O)=O)nc1N1CCCC(n2nc(-c3ccc(Oc4ccccc4)cc3)c3c(N)ncnc32)C1 (stereo not shown)
Result: 92

====

Test system: FLT3(ITD,F691L)
assay-info: KINOMEscan ScanTK
Format: binding
Answer each item with its documented %Control @1000nM.
Answer as a quantity: numeral, then unit.

Query: Form field: reported %Control @1000nM of Cc1cnc(S(C)(=O)=O)nc1N1CCCC(n2nc(-c3ccc(Oc4ccccc4)cc3)c3c(N)ncnc32)C1 (centres unmarked)
Result: 96%

Query: Follow-up item: `CCOC(=O)c1cnc(S(C)(=O)=O)nc1N1CCC[C@@H](n2nc(-c3ccc(Oc4ccccc4)cc3)c3c(N)ncnc32)C1`
Result: 100%

Query: Follow-up item: COC(=O)c1cnc(S(C)(=O)=O)nc1N1CCCC(n2nc(-c3ccc(Oc4ccccc4)cc3)c3c(N)ncnc32)C1 (centres unmarked)
Result: 96%

Query: Follow-up item: C=CC(=O)N1CCC[C@@H](n2nc(-c3ccc(Oc4ccccc4)cc3)c3c(N)ncnc32)C1 [Compound 1g, Ibrutinib, reference compound]
Result: 100%

Query: Follow-up item: CNC(=O)c1cnc(S(C)(=O)=O)nc1N1CCCC(n2nc(-c3ccc(Oc4ccccc4)cc3)c3c(N)ncnc32)C1 (centres unmarked)
Result: 100%

====

Answer each item with its documented remaining binding at 1 µM.
tgt: EGFR(L861Q) (Homo sapiens, UniProt P00533, L861Q)
Construct: purchased Eurofins DiscoverX KINOMEscan (scanTK)
Sequence (P00533 25-1210 L861Q): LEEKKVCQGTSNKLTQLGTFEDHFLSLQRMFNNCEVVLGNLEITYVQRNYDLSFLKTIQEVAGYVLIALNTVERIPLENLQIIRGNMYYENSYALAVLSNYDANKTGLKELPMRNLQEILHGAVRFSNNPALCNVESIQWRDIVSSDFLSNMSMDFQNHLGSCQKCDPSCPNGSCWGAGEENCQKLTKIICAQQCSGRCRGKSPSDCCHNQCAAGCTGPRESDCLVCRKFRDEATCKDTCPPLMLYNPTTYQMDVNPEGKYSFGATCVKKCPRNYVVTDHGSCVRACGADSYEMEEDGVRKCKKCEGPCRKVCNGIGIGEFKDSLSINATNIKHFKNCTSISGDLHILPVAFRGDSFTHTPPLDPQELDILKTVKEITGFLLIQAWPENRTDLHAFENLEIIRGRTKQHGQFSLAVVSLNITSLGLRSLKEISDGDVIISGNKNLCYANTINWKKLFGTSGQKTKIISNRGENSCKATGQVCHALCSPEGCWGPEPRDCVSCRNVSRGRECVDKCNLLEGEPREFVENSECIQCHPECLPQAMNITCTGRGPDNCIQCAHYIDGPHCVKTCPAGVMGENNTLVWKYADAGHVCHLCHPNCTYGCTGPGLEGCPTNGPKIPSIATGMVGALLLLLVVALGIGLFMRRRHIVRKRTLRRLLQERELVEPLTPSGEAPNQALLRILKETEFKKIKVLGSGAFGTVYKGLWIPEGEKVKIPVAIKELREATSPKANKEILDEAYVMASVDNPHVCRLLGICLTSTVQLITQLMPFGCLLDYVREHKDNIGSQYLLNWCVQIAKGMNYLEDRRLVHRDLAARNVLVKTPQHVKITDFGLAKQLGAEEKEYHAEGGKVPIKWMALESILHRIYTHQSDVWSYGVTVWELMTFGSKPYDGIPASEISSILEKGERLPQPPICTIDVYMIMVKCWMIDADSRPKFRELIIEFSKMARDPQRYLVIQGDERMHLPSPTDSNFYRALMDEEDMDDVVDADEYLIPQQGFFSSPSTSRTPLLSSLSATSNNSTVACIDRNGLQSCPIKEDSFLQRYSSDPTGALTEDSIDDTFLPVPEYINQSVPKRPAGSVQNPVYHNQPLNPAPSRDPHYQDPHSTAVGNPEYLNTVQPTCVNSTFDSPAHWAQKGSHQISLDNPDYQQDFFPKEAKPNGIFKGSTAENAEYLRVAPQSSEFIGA
assay-info: KINOMEscan ScanTK
Format: binding
run-conditions: read-out: %Control @1000nM
Please reply with the bare figure in % and do not write the unit itself.

Query: Form field: reported remaining binding at 1 µM of CNC(=O)c1cnc(S(C)(=O)=O)nc1N1CCCC(n2nc(-c3ccc(Oc4ccccc4)cc3)c3c(N)ncnc32)C1 (stereo not shown)
Result: 29

Query: Follow-up item: `CCOC(=O)c1cnc(S(C)(=O)=O)nc1N1CCC[C@@H](n2nc(-c3ccc(Oc4ccccc4)cc3)c3c(N)ncnc32)C1`
Result: 82

Query: Follow-up item: COC(=O)c1cnc(S(C)(=O)=O)nc1N1CCCC(n2nc(-c3ccc(Oc4ccccc4)cc3)c3c(N)ncnc32)C1 (stereo not shown)
Result: 57

Query: Follow-up item: Cc1cnc(S(C)(=O)=O)nc1N1CCCC(n2nc(-c3ccc(Oc4ccccc4)cc3)c3c(N)ncnc32)C1 (stereo not shown)
Result: 82

====

tgt: KIT (Homo sapiens, UniProt P10721)
Construct: purchased Eurofins DiscoverX KINOMEscan (scanTK)
Sequence (P10721 26-976): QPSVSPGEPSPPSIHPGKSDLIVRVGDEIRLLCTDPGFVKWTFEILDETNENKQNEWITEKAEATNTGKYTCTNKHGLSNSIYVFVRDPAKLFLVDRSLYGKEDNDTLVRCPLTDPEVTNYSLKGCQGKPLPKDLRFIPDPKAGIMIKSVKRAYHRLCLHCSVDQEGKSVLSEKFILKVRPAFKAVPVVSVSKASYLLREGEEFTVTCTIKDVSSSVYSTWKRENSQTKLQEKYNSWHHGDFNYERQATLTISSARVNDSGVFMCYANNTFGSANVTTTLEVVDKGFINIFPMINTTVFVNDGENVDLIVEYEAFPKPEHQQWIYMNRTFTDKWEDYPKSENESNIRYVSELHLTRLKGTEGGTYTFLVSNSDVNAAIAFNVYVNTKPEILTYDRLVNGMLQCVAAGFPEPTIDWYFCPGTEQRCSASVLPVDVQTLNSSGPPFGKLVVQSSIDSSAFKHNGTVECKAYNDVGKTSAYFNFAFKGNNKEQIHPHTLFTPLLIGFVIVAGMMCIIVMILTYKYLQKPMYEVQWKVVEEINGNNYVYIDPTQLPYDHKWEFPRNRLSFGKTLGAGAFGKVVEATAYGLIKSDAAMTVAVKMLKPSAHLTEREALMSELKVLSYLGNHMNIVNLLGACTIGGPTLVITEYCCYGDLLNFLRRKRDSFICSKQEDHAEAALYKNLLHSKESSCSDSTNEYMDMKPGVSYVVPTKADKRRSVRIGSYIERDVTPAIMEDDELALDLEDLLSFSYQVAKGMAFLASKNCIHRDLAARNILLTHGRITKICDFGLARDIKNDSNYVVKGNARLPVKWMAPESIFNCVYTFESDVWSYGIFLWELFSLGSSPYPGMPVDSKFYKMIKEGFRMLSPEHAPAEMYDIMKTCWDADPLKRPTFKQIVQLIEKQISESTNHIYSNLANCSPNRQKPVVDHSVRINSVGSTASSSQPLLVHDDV
assay-info: KINOMEscan ScanTK
Type: binding
run-conditions: @1000nM, read-out: %Control
Please note: remaining binding at 1 µM exactly at 90% is Criterion not met. Only values below 90% get Criterion met.

Query: Hello, I'm reviewing records and need to know if remaining binding at 1 µM of COC(=O)c1cnc(S(C)(=O)=O)nc1N1CCCC(n2nc(-c3ccc(Oc4ccccc4)cc3)c3c(N)ncnc32)C1 (centres unmarked) is below 90%. Could you check?
Result: Criterion met

Query: Follow-up item: Cc1cnc(S(C)(=O)=O)nc1N1CCCC(n2nc(-c3ccc(Oc4ccccc4)cc3)c3c(N)ncnc32)C1 (centres unmarked)
Result: Criterion met

Query: Follow-up item: `CCOC(=O)c1cnc(S(C)(=O)=O)nc1N1CCC[C@@H](n2nc(-c3ccc(Oc4ccccc4)cc3)c3c(N)ncnc32)C1`
Result: Criterion not met

Query: Follow-up item: C=CC(=O)N1CCC[C@@H](n2nc(-c3ccc(Oc4ccccc4)cc3)c3c(N)ncnc32)C1 [Compound 1g, Ibrutinib, reference compound]
Result: Criterion met

Query: Follow-up item: CNC(=O)c1cnc(S(C)(=O)=O)nc1N1CCCC(n2nc(-c3ccc(Oc4ccccc4)cc3)c3c(N)ncnc32)C1 (centres unmarked)
Result: Criterion not met
